Data credit: patent US9969723B2

tested.on: GPR40 (Homo sapiens (Human))
assay.overview: GPR40 protein activity by intracellular calcium concentration (Fluo-4, Flexstation 3) in transfected HEK-293 cells
Type: cell-based
reported.conditions: HEK-293 cells transfected with human GPR40, intracellular calcium; read-out: EC50
attribute.measured: EC50

Guide cases for EC50, answers given:
{"compound": "CC#CC(CC(=O)O)c1ccc(OCc2ccc(CN3CCc4cc(OC)ccc4C3)cc2)cc1 (stereo not drawn)", "EC50": "> 300 nM"}
{"compound": "CC#C[C@@H](CC(=O)O)c1ccc(OCc2ccc(CN3Cc4ccccc4C3)cc2)cc1", "EC50": "< 200 nM"}
{"compound": "CC#C[C@@H](CC(=O)O)c1ccc(OCc2ccc(CN3CCN(c4ccc(C#N)cn4)CC3)cc2)cc1", "EC50": "> 300 nM"}

Query: Give me measured EC50, please, for this compound: CC#C[C@H](CC(=O)O)c1ccc(OCc2cccc(C3=CCC4(CC3)OCCO4)c2)cc1
Reply: > 300 nM

Query: Give me measured EC50, please, for this compound: CC#CC(CC(=O)O)c1ccc(OCc2ccc(CN3CCN(c4ccc(OCCCS(C)(=O)=O)cc4)CC3)cc2)cc1 (stereo not drawn)
Reply: > 300 nM

Query: Give me measured EC50, please, for this compound: CC#CC(CC(=O)O)c1ccc(OCc2cccc(C3=CCC(O)CC3)c2)cc1 (stereo not drawn) [Example 5]
Reply: 200 to 300 nM

Query: Give me measured EC50, please, for this compound: CC#C[C@@H](CC(=O)O)c1ccc(OCc2ccc(CN3CCN(c4ccc(OCCCS(C)(=O)=O)cc4)CC3)cc2)cc1
Reply: > 300 nM

Query: Give me measured EC50, please, for this compound: CC#CC(CC(=O)O)c1ccc(OCc2ccc(CN3CCc4ccccc4C3)c(C3=CCCCC3)c2)cc1 (stereo not drawn)
Reply: > 300 nM

====

tested.on: GPR40 (Homo sapiens (Human), UniProt O14842)
Sequence (O14842 whole entry): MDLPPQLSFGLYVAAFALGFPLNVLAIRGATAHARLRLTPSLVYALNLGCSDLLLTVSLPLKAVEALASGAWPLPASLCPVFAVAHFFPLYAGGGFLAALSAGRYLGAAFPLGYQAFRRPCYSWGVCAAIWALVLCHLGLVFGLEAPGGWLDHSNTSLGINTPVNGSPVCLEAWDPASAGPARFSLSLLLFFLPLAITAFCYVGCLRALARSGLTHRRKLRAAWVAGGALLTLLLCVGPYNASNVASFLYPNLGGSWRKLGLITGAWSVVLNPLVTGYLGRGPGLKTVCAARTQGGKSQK
assay.overview: Calcium flux GPCR agonist assay (Millipore GPCR profiler, FLIPR TETRA)
attribute.measured: EC50 (nM)
Dear colleague, please return just the value in nM, with no unit written.

Query: Give me measured EC50, please, for this compound: O=C(O)CCc1ccc(NCc2cccc(Oc3ccccc3)c2)cc1 [Comparative Example 3, reference compound]
Reply: 27

====

tested.on: GPR40 (Homo sapiens (Human), UniProt O14842)
assay.overview: GPR40 protein activity by intracellular calcium concentration (Fluo-4, Flexstation 3) in transfected HEK-293 cells
Assay type: cell-based
reported.conditions: HEK-293 cells transfected with human GPR40, intracellular calcium; read-out: EC50
pEC50: −log10 of the molar value.
Attribute: pEC50

{"mol.smiles": "CC#C[C@@H](CC(=O)O)c1ccc(OCc2ccc(CN3CCC(c4ccccc4)CC3)cc2)cc1", "tested.on": "GPR40 (Homo sapiens (Human), UniProt O14842)", "attribute.measured": "pEC50", "result": "< 6.52"}

Query: Give me measured pEC50, please, for this molecule: CC#C[C@@H](CC(=O)O)c1ccc(OCc2cccc(C3=CCC4(CC3)OCCO4)c2)cc1
Reply: > 6.70

Query: Give me measured pEC50, please, for this molecule: CC#C[C@@H](CC(=O)O)c1ccc(OCc2ccc(CN3CCN(c4ccc(F)cc4)CC3)cc2)cc1
Reply: 6.52 to 6.70

Query: Give me measured pEC50, please, for this molecule: CC#C[C@@H](CC(=O)O)c1ccc(OCc2ccc(CN3CC=C(c4ccccc4)CC3)cc2)cc1
Reply: > 6.70
